src = the RNAGym collection of RNA variant scans (doi:10.1126/science.aae0568)

B1: tRNA (parent)
chain: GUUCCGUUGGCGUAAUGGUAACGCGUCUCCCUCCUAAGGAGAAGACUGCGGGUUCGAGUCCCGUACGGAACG

Variants of: B1
Experiment: yeast fitness relative to wild type (ratio to wild type); higher = fitter; tRNA-Arg(CCU), competitive growth, 37 C, YPD
Fewer inactive variants are shown than the library holds.
yeast fitness for assorted variants
Answer as a number with no unit attached.

As a guide, the following entries are already answered.
C4G G51U: 0.654
G18C U47C: 0.658
U7C U64A: 0.923
A43U C55A A65U A70G: 0.56
U16C G18A U28A C31A U32A A57G G67A: 0.962
A21C C61U A70U: 0.623
C4G A21G U32A: 0.672
G6C C31A A65G C66U: 0.594

Consider the additional variant presented here.
I would be grateful if you could share the reported yeast fitness for A14C C24U U35C C46G G52A C61A .
0.535
